Target: T1, biotinylated ADDL (bADDL) (UniProt P05067 672-713, N-terminal biotin)
T1 construct: domain: Aβ1-42; Panning and ELISA speak of 10% biotinylated ADDL; also called bADDLs; high molecular weight bADDL
Test: BIACORE, bADDL as antigen; Fab
Exercise: for every item that follows, state its recorded pKd.
Give bare numbers, as −log10 of the molar value.

Known results for binders:
20C2-7A Fab (Fab, V domains shown) VH: QVTLKESGPALVKPTQTLTLTCTFSGFSLSTSGMGVGWIRQPPGKALEWLAHIWWDDDKSYNPSLKSRLTISKDTSKNQVVLTMTNMDPVDTATYYCARRQLGLRSIDAMDYWGQGTTVTVSS VL: DVVMTQSPLSLPVTPGEPASISCRSSQSILHSNGNTYLEWYLQKPGQSPQLLIYKVSNRFSGVPDRFSGSGSGTDFTLKISRVEAEDVGVYYCLNSTTVPLTFGQGTKLEIKR ... 6.36
20C2-8A Fab (Fab, V domains shown) VH: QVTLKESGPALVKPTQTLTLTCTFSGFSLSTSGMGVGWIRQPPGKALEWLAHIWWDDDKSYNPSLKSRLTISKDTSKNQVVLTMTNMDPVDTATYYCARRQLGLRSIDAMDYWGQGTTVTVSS VL: DVVMTQSPLSLPVTPGEPASISCRSSQSILHSNGNTYLEWYLQKPGQSPQLLIYKVSNRFSGVPDRFSGSGSGTDFTLKISRVEAEDVGVYYCLQTTRVPLTFGQGTKLEIKR ... 7.89
20C2-9A Fab (Fab, V domains shown) VH: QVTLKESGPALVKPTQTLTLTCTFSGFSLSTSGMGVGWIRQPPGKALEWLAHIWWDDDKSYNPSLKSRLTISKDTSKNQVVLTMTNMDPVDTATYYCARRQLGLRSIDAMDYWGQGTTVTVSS VL: DVVMTQSPLSLPVTPGEPASISCRSSQSILHSNGNTYLEWYLQKPGQSPQLLIYKVSNRFSGVPDRFSGSGSGTDFTLKISRVEAEDVGVYYCVQTSLVPLTFGQGTKLEIKR ... 7.40
20C2-18A Fab (Fab, V domains shown) VH: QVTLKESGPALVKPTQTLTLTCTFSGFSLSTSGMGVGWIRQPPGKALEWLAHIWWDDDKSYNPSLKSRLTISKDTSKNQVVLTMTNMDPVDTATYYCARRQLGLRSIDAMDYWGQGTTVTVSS VL: DVVMTQSPLSLPVTPGEPASISCRSSQSILHSNGNTYLEWYLQKPGQSPQLLIYKVSNRFSGVPDRFSGSGSGTDFTLKISRVEAEDVGVYYCMQSSFVPLTFGQGTKLEIKR ... 7.07
20C2-13A Fab (Fab, V domains shown) VH: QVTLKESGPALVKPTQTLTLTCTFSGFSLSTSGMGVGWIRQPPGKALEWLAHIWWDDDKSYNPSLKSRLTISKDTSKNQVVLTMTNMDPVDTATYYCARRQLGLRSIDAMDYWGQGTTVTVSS VL: DVVMTQSPLSLPVTPGEPASISCRSSQSILHSNGNTYLEWYLQKPGQSPQLLIYKVSNRFSGVPDRFSGSGSGTDFTLKISRVEAEDVGVYYCLQTSNVPLTFGQGTKLEIKR ... 6.25

*Q* Report pKd for 20C2-12A Fab (Fab, V domains shown) VH: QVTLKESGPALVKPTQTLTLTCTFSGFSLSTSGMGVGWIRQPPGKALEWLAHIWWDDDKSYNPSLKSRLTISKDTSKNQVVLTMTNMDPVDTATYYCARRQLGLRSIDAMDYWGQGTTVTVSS VL: DVVMTQSPLSLPVTPGEPASISCRSSQSILHSNGNTYLEWYLQKPGQSPQLLIYKVSNRFSGVPDRFSGSGSGTDFTLKISRVEAEDVGVYYCLQSSLVPLTFGQGTKLEIKR
*A* 6.62
